Numbers sourced from ChEMBL document CHEMBL4689842.

Parameter: Population Mitochondria Different-Phenotype (%). Scope: all listed entries.
Test system: Fibroblast
protocol-text: Multiplex assay against human fibroblast
Type: toxicity, cell-based
condition: 12 h, 1 µM, compound concentration 1 uM, replicate 2
Don't forget the unit after the value.

Data request: # Population Mitochondria Different-Phenotype (%) lookup, item `CN1CCN(CCOc2cc(OC3CCOCC3)c3c(Nc4c(Cl)ccc5c4OCO5)ncnc3c2)CC1`
Data returned: 23%

Data request: # Population Mitochondria Different-Phenotype (%) lookup, item `c1cn2cc(-c3ccc4cn[nH]c4c3)nc(Nc3ccc(N4CCOCC4)cc3)c2n1`
Data returned: 23%

Data request: # Population Mitochondria Different-Phenotype (%) lookup, item `CNc1nc(NCc2ccc(NS(C)(=O)=O)cc2Cl)cc(-c2ccccn2)n1`
Data returned: 9%

Data request: # Population Mitochondria Different-Phenotype (%) lookup, item CN(C)C(=O)N[C@H]1CC[C@H](CCN2CCN(c3cccc(Cl)c3Cl)CC2)CC1.Cl [CARIPRAZINE HYDROCHLORIDE]
Data returned: 29%

Data request: # Population Mitochondria Different-Phenotype (%) lookup, item COc1cccc([C@@H](C)NCCCc2ccccc2Cl)c1.Cl [TECALCET HYDROCHLORIDE]
Data returned: 20%

Data request: # Population Mitochondria Different-Phenotype (%) lookup, item `Nc1c(C(=O)NCc2ccc(C(=O)NCCCC3CCCCC3)cc2)cnn1-c1ccccc1`
Data returned: 8%

Data request: # Population Mitochondria Different-Phenotype (%) lookup, item `OC1(c2ccc(Cl)cc2)CCN(Cc2c[nH]c3ccccc23)CC1`
Data returned: 13%

Data request: # Population Mitochondria Different-Phenotype (%) lookup, item `COc1ncc(-c2ccc3nccc(-c4ccnnc4)c3c2)cc1NS(=O)(=O)c1ccc(F)cc1F`
Data returned: 16%
